Parameter T/C: see the listing below.
test system: B6C3F1 mice, Lewis lung carcinoma iv, survival T/C; experiment: NCI In Vivo Anticancer Drug Screen. Data for tumor model Lewis Lung Carcinoma (intravenous) in B6C3F1 mice; conditions: endpoint: median survival time; dose: 200.0 mg/kg/injection; schedule: Q01DX009 (ip); vehicle: water; higher = longer survival
Toxic doses and inconclusive results are not listed.

The cases that follow already have their T/C on record.
| Molecule | T/C |
| --- | --- |
| N#CC(OC1OC(COC2OC(CO)C(O)C(O)C2O)C(O)C(O)C1O)c1ccccc1 (stereo unspecified) | 98 % of control |
| BrCCC1(CCBr)CCCCC1 | 98 % of control |
| O=C(O)C1CC(c2ccccc2)=NN1c1ccccc1 (stereo unspecified) | 106 % of control |
| CC(C)[C@](O)(C(=O)OCC1=CCN2CC[C@@H](O)[C@@H]12)[C@H](C)O | 109 % of control |
| [Na+] | 95 % of control |
| O=C(NO)c1cc(O)c(O)c(O)c1 | 110 % of control |
| Cc1noc(N)c1N | 98 % of control |
| C[C@]12C=CC(=O)C=C1CC[C@@H]1[C@@H]2C(=O)C[C@@]2(C)[C@H]1CC[C@]2(O)C(=O)CO | 94 % of control |
| OC1OC2COC(c3ccccc3)OC2C(O)C1O (stereo unspecified) | 101 % of control |
| CC(=O)NC(C=O)OCC=O (stereo unspecified) | 103 % of control |

Now look at this one.
Req: # return recorded T/C for input Nc1cc(Cl)c2[nH]cnc2n1
Resp: 100 % of control

====

test system: B6C3F1 mice, Lewis lung carcinoma iv, survival T/C; assay: NCI In Vivo Anticancer Drug Screen. Data for tumor model Lewis Lung Carcinoma (intravenous) in B6C3F1 mice; details: endpoint: median survival time; dose: 3.12 mg/kg/injection; schedule: Q01DX009 (ip); vehicle: saline with Tween-80; higher = longer survival
Toxic doses and inconclusive results are not listed.
Parameter T/C: see the listing below.

| Compound | Assay value |
| --- | --- |
| O=S1(=O)C=C(c2ccccc2)C(c2ccccc2)=C1 | 101 % of control |
| NC(=O)/C=C/C(=O)c1c(Cl)cccc1Cl | 117 % of control |
| CCc1nc(N)nc(N)c1-c1ccc(Cl)c([N+](=O)[O-])c1 | 105 % of control |

Req: # return recorded T/C for input C[CH2][Sn]([CH2]C)([CH2]C(=O)OC)[CH2]C(=O)OC
Resp: 99 % of control

====

tested on: B6C3F1 mice, Lewis lung carcinoma iv, survival T/C; experiment: NCI In Vivo Anticancer Drug Screen. Data for tumor model Lewis Lung Carcinoma (intravenous) in B6C3F1 mice; conditions: endpoint: median survival time; dose: 200.0 mg/kg/injection; schedule: Q01DX009 (ip); vehicle: saline with Tween-80; higher = longer survival
Toxic doses and inconclusive results are not listed.
Parameter T/C: see the listing below.

| Molecule | System under test | Assay value |
| --- | --- | --- |
| CN=S(=O)(OCCCCCOS(=O)(=NC)c1ccc(C)cc1)c1ccc(C)cc1 (stereo not drawn) | B6C3F1 mice, Lewis lung carcinoma iv, survival T/C | 96 % of control |
| CC(C#N)(C#N)N=Nc1ccc(Cl)cc1Cl | B6C3F1 mice, Lewis lung carcinoma iv, survival T/C | 106 % of control |
| CC(Oc1ccccc1-c1ccccc1)C(=O)N(C)C (stereo not drawn) | B6C3F1 mice, Lewis lung carcinoma iv, survival T/C | 101 % of control |

Req: # return recorded T/C for input Cc1ccc2c(c1)N=C(Nc1ccccc1)N=S2(C)=O (stereo not drawn)
Resp: 119 % of control

Req: # return recorded T/C for input CCCCCCOC(CN(C)C)C(Cl)(Cl)Cl (stereo not drawn)
Resp: 95 % of control

Req: # return recorded T/C for input NCCCNCCSP(=O)(O)O
Resp: 105 % of control

Req: # return recorded T/C for input CCO/C=C1\SC(=S)N(c2ccccc2C)C1=O
Resp: 108 % of control

Req: # return recorded T/C for input O=C(C/C(=N\C(=S)Nc1cc(C(F)(F)F)ccc1Cl)NO)N1CCCC1
Resp: 99 % of control

====

Parameter T/C: see the listing below.
Tested on: B6C3F1 mice, Lewis lung carcinoma iv, survival T/C
Experiment: NCI In Vivo Anticancer Drug Screen. Data for tumor model Lewis Lung Carcinoma (intravenous) in B6C3F1 mice
Settings: endpoint: median survival time; dose: 12.0 mg/kg/injection; schedule: Q01DX009 (ip); vehicle: saline; higher = longer survival
Description: The antitumor activity of compounds was measured in mice bearing transplantable tumors. Survival or tumor size were measured and the results are expressed as the measurement made in the treated group (T) divided by the measurement made in the vehicle treated control group (C). The tumor model used in this assay is Lewis Lung Carcinoma (intravenous) in B6C3F1 mice
Inconclusive results and toxic doses are left out.

The cases that follow already have their T/C on record.
| Compound | System under test | T/C |
| --- | --- | --- |
| CCn1cnc2c(=S)nc[nH]c21 | B6C3F1 mice, Lewis lung carcinoma iv, survival T/C | 100 % of control |
| C[n+]1c2cc(N)ccc2cc2ccc(N)cc21 | B6C3F1 mice, Lewis lung carcinoma iv, survival T/C | 90 % of control |
| c1csc(C[N+]23CN4CN(CN(C4)C2)C3)c1 | B6C3F1 mice, Lewis lung carcinoma iv, survival T/C | 100 % of control |
| Cc1ccccc1CN1C2=NCCN2C(=O)C2=C1CCN(S(=O)(=O)c1ccc(Cl)c(S(N)(=O)=O)c1)C2 | B6C3F1 mice, Lewis lung carcinoma iv, survival T/C | 103 % of control |

Req: # return recorded T/C for input O=C(C1CO1)C(Cl)(Cl)Cl (centres undefined)
Resp: 95 % of control

Req: # return recorded T/C for input O=P1(N(CCCl)CCCl)NCCCO1 (centres undefined)
Resp: 116 % of control

Req: # return recorded T/C for input CCCCCCCC(=O)N/N=C(\CO)[C@]1(O)Cc2c(O)c3c(c(O)c2[C@@H](OC2CC(N)C(O)C(C)O2)C1)C(=O)c1c(OC)cccc1C3=O (some centres undefined)
Resp: 112 % of control

Req: # return recorded T/C for input [N-]=[N+]=[N-]
Resp: 95 % of control

Req: # return recorded T/C for input CCN(CC)CCOCCO
Resp: 96 % of control

====

system: B6C3F1 mice, Lewis lung carcinoma iv, survival T/C; assay: NCI In Vivo Anticancer Drug Screen. Data for tumor model Lewis Lung Carcinoma (intravenous) in B6C3F1 mice; settings: endpoint: median survival time; dose: 1.0 mg/kg/injection; schedule: Q01DX009 (ip); vehicle: saline; higher = longer survival
Toxic doses and inconclusive results are not listed.
Parameter T/C: see the listing below.

The cases that follow already have their T/C on record.
| Compound | Assay value |
| --- | --- |
| OC(C1CO1)C(O)C1CO1 (stereo not given) | 102 % of control |
| O=C1C(NCC(O)CO)=C(N2CC2)C(=O)C(NCC(O)CO)=C1N1CC1 (stereo not given) | 98 % of control |
| Cc1c(N)nc([C@H](CC(N)=O)NC[C@H](N)C(N)=O)nc1C(=O)N[C@H](C(=O)N[C@H](C)[C@@H](O)[C@H](C)C(=O)N[C@H](C(=O)NCCc1nc(-c2nc(C(=O)NCCC[S+](C)C)cs2)cs1)[C@@H](C)O)C(OC1OC(CO)C(O)C(O)C1OC1OC(CO)C(O)C(OC(N)=O)C1O)c1cnc[nH]1 (stereo not given in full) | 113 % of control |
| O=C1c2c(O)ccc(O)c2C(=O)c2c(NCCNCCO)ccc(NCCNCCO)c21 | 123 % of control |

Req: # return recorded T/C for input NC(=O)c1ccc(N)nc1
Resp: 115 % of control

====

system: B6C3F1 mice, Lewis lung carcinoma iv, survival T/C; assay: NCI In Vivo Anticancer Drug Screen. Data for tumor model Lewis Lung Carcinoma (intravenous) in B6C3F1 mice; conditions: endpoint: median survival time; dose: 25.0 mg/kg/injection; schedule: Q01DX009 (ip); vehicle: saline; higher = longer survival
Inconclusive results and toxic doses are left out.
Parameter T/C: see the listing below.

The cases that follow already have their T/C on record.
| Compound | T/C |
| --- | --- |
| O=C(O)C1CSCN1 (stereo unspecified) | 101 % of control |
| CC(=O)Oc1c(C)[nH]ccc1=O | 97 % of control |

Req: # return recorded T/C for input COC(=O)C(N)Cc1ccc(O)c(O)c1 (stereo unspecified)
Resp: 103 % of control

Req: # return recorded T/C for input O=C(O)C(O)C(O)C1[O][Sb][O]C1C(=O)O (stereo unspecified)
Resp: 98 % of control

Req: # return recorded T/C for input O=c1[nH]c2c(ccc3cnccc32)c2c1CCC2
Resp: 109 % of control

Req: # return recorded T/C for input COC(=O)c1ccoc1
Resp: 111 % of control

Req: # return recorded T/C for input CN(N=O)C(N)=O
Resp: 107 % of control

Req: # return recorded T/C for input Cn1cnc([N+](=O)[O-])c1SCC(=O)O
Resp: 107 % of control
